systemUnderTest: human VR1 (Homo sapiens, UniProt Q8NER1)
Construct: expressed in transfected cells; host or cells: HEK293
Sequence (Q8NER1 whole entry): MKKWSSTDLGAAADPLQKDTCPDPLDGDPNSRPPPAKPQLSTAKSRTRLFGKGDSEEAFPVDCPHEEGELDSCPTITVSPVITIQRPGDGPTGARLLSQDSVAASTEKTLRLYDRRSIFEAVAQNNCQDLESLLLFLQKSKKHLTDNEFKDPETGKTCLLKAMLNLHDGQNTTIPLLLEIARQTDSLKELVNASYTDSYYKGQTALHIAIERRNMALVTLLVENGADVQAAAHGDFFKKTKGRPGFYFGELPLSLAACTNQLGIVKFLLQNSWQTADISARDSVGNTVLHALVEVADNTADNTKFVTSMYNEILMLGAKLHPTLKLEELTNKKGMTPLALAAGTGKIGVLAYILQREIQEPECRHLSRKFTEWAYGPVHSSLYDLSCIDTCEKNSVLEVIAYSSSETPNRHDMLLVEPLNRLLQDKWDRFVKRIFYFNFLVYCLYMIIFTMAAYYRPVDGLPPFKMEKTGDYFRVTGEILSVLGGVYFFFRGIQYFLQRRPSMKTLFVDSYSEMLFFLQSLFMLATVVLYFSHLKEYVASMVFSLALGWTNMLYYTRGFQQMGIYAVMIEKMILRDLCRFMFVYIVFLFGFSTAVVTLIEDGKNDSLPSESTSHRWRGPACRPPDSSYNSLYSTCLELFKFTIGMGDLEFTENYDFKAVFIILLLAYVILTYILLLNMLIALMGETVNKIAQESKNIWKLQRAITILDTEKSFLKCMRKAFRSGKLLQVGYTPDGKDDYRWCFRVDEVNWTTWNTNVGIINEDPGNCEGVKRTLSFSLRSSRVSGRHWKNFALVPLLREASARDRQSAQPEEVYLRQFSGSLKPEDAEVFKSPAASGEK
experimentDescription: Human VR1 [3H] RTX binding assay
runConditions: 3H-RTX binding; hVR1; read-out: 3H-RTX binding assay Ki hVR1
Task for the reader: assign each of the following compounds its reported Ki.
Give the value in nM but do not write nM after it.

Q. Name the reported Ki value associated with the compound CCCC1CCN(c2ccc(C(=O)Nc3cnc4ccccc4c3)cc2)CC1
A. 103

Q. # lookup: Ki of CN(CC=Cc1ccccc1)c1ccc(C(=O)Nc2cnc3ccccc3c2)cc1
A. 125

Q. What does the record list as Ki for Cc1ccc(C(C)CCN(C)c2ccc(C(=O)Nc3cnc4ccccc4c3)cc2)o1 (stereo not shown) ?
A. 31.2

Q. Requested field: Ki. Item: CCCN(c1ccc(C(=O)Nc2cnc3ccccc3c2)cc1)C1CCCCC1
A. 84.6

Q. # lookup: Ki of CN(CCc1ccccc1)c1ccc(C(=O)Nc2cnc3ccccc3c2)cc1 [Example 89]
A. 27.3

Q. Field request: Ki | item: CC(C)=CCC[C@@H](C)CCN(C)c1ccc(C(=O)Nc2cnc3ccccc3c2)cc1
A. 11.1

Q. Field request: Ki | item: CCCCCCCCN(C)c1ccc(C(=O)Nc2cnc3ccccc3c2)cc1
A. 14.7

src = patent US8394828B2
